molecular target: Btk (Homo sapiens (Human), UniProt Q06187); assay: standard biochemical Btk Kinase Assay (Example 901); conditions: Table 2
Sequence (Q06187 whole entry): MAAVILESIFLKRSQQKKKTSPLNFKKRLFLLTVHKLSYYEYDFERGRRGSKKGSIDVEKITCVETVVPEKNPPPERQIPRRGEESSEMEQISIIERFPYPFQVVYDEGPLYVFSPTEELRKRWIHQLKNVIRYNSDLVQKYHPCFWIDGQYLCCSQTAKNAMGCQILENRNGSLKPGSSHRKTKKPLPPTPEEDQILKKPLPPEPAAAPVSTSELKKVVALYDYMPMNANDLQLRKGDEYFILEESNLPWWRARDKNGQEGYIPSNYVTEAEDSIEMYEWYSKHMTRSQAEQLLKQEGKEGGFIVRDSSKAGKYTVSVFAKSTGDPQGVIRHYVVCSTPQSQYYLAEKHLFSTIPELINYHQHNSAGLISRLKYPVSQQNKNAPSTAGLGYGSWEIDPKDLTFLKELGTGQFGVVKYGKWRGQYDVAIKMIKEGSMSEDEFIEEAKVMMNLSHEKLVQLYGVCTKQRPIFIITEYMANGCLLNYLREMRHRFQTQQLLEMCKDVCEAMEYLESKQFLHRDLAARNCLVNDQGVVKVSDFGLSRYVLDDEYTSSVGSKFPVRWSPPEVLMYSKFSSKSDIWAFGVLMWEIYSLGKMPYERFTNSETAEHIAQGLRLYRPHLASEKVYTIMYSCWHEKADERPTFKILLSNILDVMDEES
One threshold, 5 nM, splits the recorded IC50 values: lower ones are T, equal or higher ones are F.

* Cn1cc(-c2cccc(N3CCn4c(cc5c4CCCC5)C3=O)c2CO)cc(Nc2ccc(N3CCNCC3)cn2)c1=O | F
* CCn1nc(Nc2cc(-c3cc(F)cc(N4CCn5c(cc6c5CC(C)(C)C6)C4=O)c3CO)cn(C)c2=O)cc1C | F
* CN1CC(c2ccc(Nc3nc(-c4cc(F)cc(N5CCc6c(sc7c6CC(C)(C)C7)C5=O)c4CO)cn(C)c3=O)cc2)C1 | F
* CN1CCC(c2ccc(Nc3nc(-c4cc(F)cc(N5CCn6c(cc7c6CC(C)(C)C7)C5=O)c4CO)cn(C)c3=O)cc2)CC1 | F
* CN1CCC[C@@H]1c1ccc(Nc2cc(-c3cc(F)cc(N4CCn5c(cc6c5CC(C)(C)C6)C4=O)c3CO)cn(C)c2=O)nc1 | T
* CN1CCC(c2ccc(Nc3nc(-c4cc(F)cc(N5CCn6c(cc7c6CCCC7)C5=O)c4CO)cn(C)c3=O)cc2)CC1 | T
* Cn1cc(-c2cc(F)cc(N3CCn4c(cc5c4CC(C)(C)C5)C3=O)c2CO)cc(Nc2ccc(N3CCN(CCF)CC3)cn2)c1=O | F
* Cn1cc(-c2cc(F)cc(N3CCn4c(cc5c4CC(C)(C)C5)C3=O)c2CO)cc(Nc2ccc(CN3CCOCC3)cn2)c1=O | T
* CN1CC(c2ccc(Nc3cc(-c4cc(F)cc(N5CCn6c(cc7c6CC(C)(C)C7)C5=O)c4CO)cn(C)c3=O)nc2)C1 | T

----------
biological target: UniProt:Q06187; experiment: standard biochemical Btk Kinase Assay (Example 901); conditions: Table 2
Measured IC50 of individual entries
endpoint: IC50 (µM)

* CN1CCN(c2ccc(Nc3cc(-c4cccc(N5CCc6c(cc7n6CCCC7)C5=O)c4CO)cn(C)c3=O)nc2)CC1 | 0.0163
* CN1CCC(c2ccc(Nc3nc(-c4cc(F)cc(N5CCc6c(sc7c6CC(C)(C)C7)C5=O)c4CO)cn(C)c3=O)cc2)CC1 | 0.0026
* CN(C)CCOc1ccc(Nc2cc(-c3cc(F)cc(N4CCn5c(cc6c5CCCC6)C4=O)c3CO)cn(C)c2=O)nc1 | 0.0042
* CCN1CCN(c2ccc(Nc3cc(-c4cccc(N5CCc6c(cc7n6CCCC7)C5=O)c4CO)cn(C)c3=O)nc2)CC1 | 0.0166
* Cn1cc(-c2cc(F)cc(N3CCn4c(cc5c4CC(C)(C)C5)C3=O)c2CO)cc(Nc2ccc3c(n2)CCN(C2COC2)C3)c1=O | 0.0116
* Cn1cc(-c2cccc(N3CCc4c(cc5n4CCCC5)C3=O)c2CO)cc(Nc2cc3n(n2)CCOC3)c1=O | 0.0165
* CN1CCc2cc(Nc3nc(-c4cc(F)cc(N5CCn6c(cc7c6CCCC7)C5=O)c4CO)cn(C)c3=O)ccc2C1 | 0.0081

----------
molecular target: Btk (Homo sapiens (Human), UniProt Q06187); test: standard biochemical Btk Kinase Assay (Example 901); settings: Table 1
One threshold, 8 nM, splits the recorded IC50 values: lower ones are y, equal or higher ones are n.

• Cc1c(-c2cc(Nc3cc4n(n3)CCN(C)C4)c(=O)n(C)n2)cccc1N1Cc2c(sc3ccccc23)C1=O [Example 103] = n
• Cn1cc(-c2cccc(N3CCn4c(cc5c4CCCC5)C3=O)c2CO)cc(Nc2cc3n(n2)CCOC3)c1=O [Example 110] = y
• Cn1cc(-c2cccc(N3CCn4c(cc5c4CCCC5)C3=O)c2CO)cc(Nc2ccc(N3CCOCC3)cn2)c1=O [Example 107] = n
• Cc1c(-c2cc(Nc3cc4n(n3)CCN(C)C4)c(=O)[nH]n2)cccc1N1CCn2c(cc3c2CCCC3)C1=O [Example 101] = y
• CC(=O)N1CCn2nc(Nc3cc(-c4cccc(N5CCn6c(cc7c6CCCC7)C5=O)c4CO)cn(C)c3=O)cc2C1 [Example 108] = y
• Cn1cc(-c2cccc(N3CCn4c(cc5c4CCCC5)C3=O)c2CO)cc(Nc2cc(C3CC3)[nH]n2)c1=O [Example 106] = y
• Cn1nc(Nc2cc(-c3cccc(N4CCc5c(sc6c5CCCC6)C4=O)c3CO)nn(C)c2=O)cc1C(C)(C)O [Example 119] = y

----------
target: Btk (Homo sapiens (Human), UniProt Q06187); test: standard biochemical Btk Kinase Assay (Example 901); conditions: Table 1
endpoint: IC50 (nM)

* CN1CCN(c2ccc(Nc3cc(-c4cccc(N5CCn6c(cc7c6CCCC7)C5=O)c4CO)cn(C)c3=O)nc2)CC1 [Example 113] | 5
* Cn1cc(-c2cccc(N3CCc4c(sc5c4CCCC5)C3=O)c2CO)nc(Nc2cnn(CCO)c2)c1=O [Example 116] | 6
* Cc1c(-c2cc(Nc3cc4n(n3)CCN(C)C4)c(=O)[nH]n2)cccc1N1CCn2c(cc3ccccc32)C1=O [Example 102] | 22.9
